biological target: NGF (species not stated); assay: cell-based or functional assay
Give IC50 (nM) (pERK-1/2, cell line expressing human TrkA) for every item shown.
One number for each entry, in nM.

Example binders with recorded IC50 (nM) (pERK-1/2, cell line expressing human TrkA):
H1-23K643 (antibody, V domains shown, also called ZTS-082-2D) VH: DVQLVESGGDLVQPGGSLRLTCVASGFTLTQYGINWVRQAPGKGLQWVAVIWATGATDYNSALKSRFTISRDNAKNTLYLQMNSLKTEDTATYYCARDGWWYATSWYFDVWGQGALVTVSS VL: EIQMTQSPSSLSASPGDRVTITCKASQDINHYLNWYQQKPGKVPKLLIYYTSRLHSGVPSRFSGSGSGTDFTLTISSLEPEDAATYYCQQGDHFPRTFGGGT :: 1.48
mAb 1B (ZTS-082) (antibody, IgG1a, V domains shown, Felinized IgG with feline heavy and kappa constant regions; also called ZTS-082-1B; H1-23 / KPL) VH: DVQLVESGGDLVQPGGSLRLTCVASGFTLTQYGINWVRQAPGKGLQWVAVIWATGATDYNSALKSRFTISRDNAKNTLYLQMNSLKTEDTATYYCARDGWWYATSWYFDVWGQGALVTVSS VL: DIVMTQTPLSLSVTPGEPASISCKASQDINHYLNWYLQKPDGTVKLLIYYTSRLHSGVPSRFSGSGSGTDFTLRISRVEADDVGVYYCQQGDHFPRTFGPGT :: 1.28
H733 L3-K36 (antibody, V domains shown, also called ZTS-082-361) VH: DVQLVESGGDLVKPGGSLRLTCVASGFTLTQYGINWVRQAPGKGLQWVAVIWATGATDYNSALKSRFTMSRDNARNTLYLQMNSLKTEDTATYYCARDGWWYATSWYFDVWGQGTLVTVSS VL: DIVMTQTPLSLPVTPGEPASISCKASQDINHYLNWYLQKPGQSPRLLIYYTSRLHSGVPSRFSGSGSGTDFTLRISSVEADDVGVYYCQQGDHFPRTFGQGT :: 1.13
H733KPL (antibody, V domains shown, also called ZTS-082-2E) VH: DVQLVESGGDLVKPGGSLRLTCVASGFTLTQYGINWVRQAPGKGLQWVAVIWATGATDYNSALKSRFTMSRDNARNTLYLQMNSLKTEDTATYYCARDGWWYATSWYFDVWGQGTLVTVSS VL: DIVMTQTPLSLSVTPGEPASISCKASQDINHYLNWYLQKPDGTVKLLIYYTSRLHSGVPSRFSGSGSGTDFTLRISRVEADDVGVYYCQQGDHFPRTFGPGT :: 1.34

Entry H1-23L3K36 (antibody, V domains shown, also called ZTS-082-1C) VH: DVQLVESGGDLVQPGGSLRLTCVASGFTLTQYGINWVRQAPGKGLQWVAVIWATGATDYNSALKSRFTISRDNAKNTLYLQMNSLKTEDTATYYCARDGWWYATSWYFDVWGQGALVTVSS VL: DIVMTQTPLSLPVTPGEPASISCKASQDINHYLNWYLQKPGQSPRLLIYYTSRLHSGVPSRFSGSGSGTDFTLRISSVEADDVGVYYCQQGDHFPRTFGQGT , IC50 (nM) (pERK-1/2, cell line expressing human TrkA) reported as 1.3
